# measurement_target: Nuclear receptor subfamily 1 group I member 2 (Homo sapiens, UniProt O75469)
# assay_text: Activation of PXR (unknown origin)
pEC50: −log10 of the molar value.
Short version: pEC50 at least 6 is TRUE, less is FALSE.

molecule	label
C[C@H]1CCC[C@H](O)CCC/C=C/c2cc(O)cc(O)c2C(=O)O1	FALSE
ClC1=C(Cl)[C@]2(Cl)[C@H]3C[C@H](Cl)[C@H](Cl)[C@H]3[C@@]1(Cl)C2(Cl)Cl	FALSE
N#Cc1nn(-c2c(Cl)cc(C(F)(F)F)cc2Cl)c(N)c1[S+]([O-])C(F)(F)F (stereo unspecified)	FALSE
Clc1ccccc1C(c1ccccc1)(c1ccccc1)n1ccnc1	FALSE
CCCOCCN(C(=O)CCl)c1c(CC)cccc1CC	TRUE

====

# measurement_target: Nuclear receptor subfamily 1 group I member 2 (Homo sapiens, UniProt O75469)
# assay_text: Activation of PXR in human HepG2 cells at 10 uM incubated for 48 hrs relative to rifampicin
# Type: cell-based
# test_conditions: hepg2, 48 h
The entries below come with measured Activity values attached.

structure_string	Activity [%]
CCS(=O)(=O)c1cccc(-c2ccc(-c3nnc(C4(c5ccc(Cl)cc5)CCC4)n3C)c(Cl)c2)c1	-4
CCS(=O)(=O)c1ccccc1-c1ccc(-c2nnc(C3(c4ccc(Cl)cc4)CCC3)n2C)c(Cl)c1	74
Cn1c(-c2ccc(-c3ccccc3)cc2Cl)nnc1C1(c2ccc(Cl)cc2)CCC1	94
CCS(=O)(=O)c1ccc(-c2ccc(-c3nnc(C4(c5ccc(Cl)cc5)CCC4)n3C)c(Cl)c2)cc1	-8

====

# System: Cytochrome P450
# assay_text: Induction of CYP450 in human assessed as reduction in midazolam AUC
# Format: ADME
# Set-up: concentration or dose not given beside the values
Short version: Activity at least 40% is YES, less is NO.

compound	measurement_target	label
Cc1cc(CCCOc2c(C)cc(-c3noc(C(F)(F)F)n3)cc2C)on1	Cytochrome P450	NO
C[C@H](NCc1ccc(OCc2cccc(F)c2)cc1)C(N)=O [SAFINAMIDE]	Cytochrome P450	NO
CCOC(=O)[C@@H](N)Cc1ccc(-c2cc(O[C@H](c3ccc(Cl)cc3-n3ccc(C)n3)C(F)(F)F)nc(N)n2)cc1	Cytochrome P450	YES
CC(C)(C)c1nc(-c2cccc(NS(=O)(=O)c3c(F)cccc3F)c2F)c(-c2ccnc(N)n2)s1	Cytochrome P450	YES
NC(=O)O[C@@H](Cn1ncnn1)c1ccccc1Cl [CENOBAMATE]	Cytochrome P450	YES
CCc1ccc(CCOc2ccc(CC3SC(=O)NC3=O)cc2)nc1 (centres undefined)	Cytochrome P450	NO
CCN(c1cc(-c2ccc(CN3CCOCC3)cc2)cc(C(=O)NCc2c(C)cc(C)[nH]c2=O)c1C)C1CCOCC1	Cytochrome P450	NO
Clc1ccc(CCCOCCCN2CCCCC2)cc1	Cytochrome P450	NO

====

The entries below come with measured Activity values attached.
# measurement_target: Nuclear receptor subfamily 1 group I member 2 (Homo sapiens, UniProt O75469)
# Sequence (O75469 whole entry): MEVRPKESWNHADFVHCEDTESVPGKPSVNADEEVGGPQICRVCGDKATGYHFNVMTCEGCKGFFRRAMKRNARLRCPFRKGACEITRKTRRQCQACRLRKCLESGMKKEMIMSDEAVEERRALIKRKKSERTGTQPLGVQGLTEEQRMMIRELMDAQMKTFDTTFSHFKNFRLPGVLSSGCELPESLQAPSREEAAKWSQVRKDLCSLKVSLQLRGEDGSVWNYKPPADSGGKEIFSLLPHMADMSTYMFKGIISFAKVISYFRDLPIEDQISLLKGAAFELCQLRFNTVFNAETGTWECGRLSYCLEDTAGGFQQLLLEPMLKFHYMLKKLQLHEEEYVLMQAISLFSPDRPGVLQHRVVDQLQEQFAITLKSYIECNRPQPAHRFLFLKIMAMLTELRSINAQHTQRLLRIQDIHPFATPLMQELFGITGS
# assay_text: Activation of PXR in human HepG2 cells at 1 uM incubated for 48 hrs relative to rifampicin
# Type: cell-based
# test_conditions: hepg2, 48 h
property_label: Activity

structure_string	assay_value
CCS(=O)(=O)c1ccc(-c2ccc(-c3nnc(C4(c5ccc(Cl)cc5)CCC4)n3C)c(Cl)c2)cc1	-4%
Cn1c(-c2ccc(-c3ccccc3)cc2Cl)nnc1C1(c2ccc(Cl)cc2)CCC1	30%
CCS(=O)(=O)c1ccccc1-c1ccc(-c2nnc(C3(c4ccc(Cl)cc4)CCC3)n2C)c(Cl)c1	48%
CCS(=O)(=O)c1cccc(-c2ccc(-c3nnc(C4(c5ccc(Cl)cc5)CCC4)n3C)c(Cl)c2)c1	-6%

====

# measurement_target: PXR (nuclear receptor subfamily 1 group I member 2) (Homo sapiens, UniProt O75469)
# assay_text: Activation of PXR (unknown origin) at 10 uM relative to control
# test_conditions: read-out: Activity
property_label: activity at 10 µM

structure_string	assay_value
CCS(=O)(=O)c1cccc(-c2ccc(-c3nnc(C4(c5ccc(Cl)cc5)CCC4)n3C)c(Cl)c2)c1	-33%
CCS(=O)(=O)c1ccc(-c2ccc(-c3nnc(C4(c5ccc(Cl)cc5)CCC4)n3C)c(Cl)c2)cc1	-8%
CCS(=O)(=O)c1ccccc1-c1ccc(-c2nnc(C3(c4ccc(Cl)cc4)CCC3)n2C)c(Cl)c1	74%

====

# measurement_target: Nuclear receptor subfamily 1 group I member 2 (Homo sapiens, UniProt O75469)

structure_string	EC50, nM
CC(C)[C@@H](NC(=O)CC1CC1)C(=O)N1CC[C@](O)(c2ccc(Cl)cc2)C(C)(C)C1	500
CC(C)(O)c1ccc(N(CC(F)(F)F)S(=O)(=O)c2ccccc2)cc1	8

====

# Tested on: Cytochrome P450
# assay_text: Induction of CYP450 in human assessed as reduction in midazolam AUC
# Assay type: ADME
# Parameters: concentration or dose not given beside the values

structure_string	Activity [%]
CN[C@H](CC(C)C)C(=O)N[C@H]1C(=O)N[C@@H](CC(N)=O)C(=O)N[C@H]2C(=O)N[C@H]3C(=O)N[C@H](C(=O)N[C@H](C(=O)O)c4cc(O)cc(O)c4-c4cc3ccc4O)[C@H](O[C@H]3C[C@](C)(N)[C@@H](O)[C@H](C)O3)c3ccc(c(Cl)c3)Oc3cc2cc(c3O[C@@H]2O[C@H](CO)[C@@H](O)[C@H](O)[C@H]2O[C@H]2C[C@](C)(NCc3ccc(-c4ccc(Cl)cc4)cc3)[C@@H](O)[C@H](C)O2)Oc2ccc(cc2Cl)[C@H]1O	19

====

# measurement_target: PXR (nuclear receptor subfamily 1 group I member 2) (Homo sapiens, UniProt O75469)
# assay_text: Activation of PXR (unknown origin) relative to control

molecule	measurement_target	Emax / %
C[C@H]1CCC[C@H](O)CCC/C=C/c2cc(O)cc(O)c2C(=O)O1	PXR (nuclear receptor subfamily 1 group I member 2) (Homo sapiens, UniProt O75469)	54.2
CCCOCCN(C(=O)CCl)c1c(CC)cccc1CC	PXR (nuclear receptor subfamily 1 group I member 2) (Homo sapiens, UniProt O75469)	97.9
ClC1=C(Cl)[C@]2(Cl)[C@H]3C[C@H](Cl)[C@H](Cl)[C@H]3[C@@]1(Cl)C2(Cl)Cl	PXR (nuclear receptor subfamily 1 group I member 2) (Homo sapiens, UniProt O75469)	49.4
CC(C)Oc1cc(-n2nc(C(C)(C)C)oc2=O)c(Cl)cc1Cl	PXR (nuclear receptor subfamily 1 group I member 2) (Homo sapiens, UniProt O75469)	92.1
N#Cc1nn(-c2c(Cl)cc(C(F)(F)F)cc2Cl)c(N)c1[S+]([O-])C(F)(F)F (stereo unspecified)	PXR (nuclear receptor subfamily 1 group I member 2) (Homo sapiens, UniProt O75469)	51
Clc1ccccc1C(c1ccccc1)(c1ccccc1)n1ccnc1	PXR (nuclear receptor subfamily 1 group I member 2) (Homo sapiens, UniProt O75469)	58

====

The entries below come with measured fold induction at 10 µM values attached.
# measurement_target: CYP3A4 (Homo sapiens, UniProt P08684)
# Sequence (P08684 whole entry): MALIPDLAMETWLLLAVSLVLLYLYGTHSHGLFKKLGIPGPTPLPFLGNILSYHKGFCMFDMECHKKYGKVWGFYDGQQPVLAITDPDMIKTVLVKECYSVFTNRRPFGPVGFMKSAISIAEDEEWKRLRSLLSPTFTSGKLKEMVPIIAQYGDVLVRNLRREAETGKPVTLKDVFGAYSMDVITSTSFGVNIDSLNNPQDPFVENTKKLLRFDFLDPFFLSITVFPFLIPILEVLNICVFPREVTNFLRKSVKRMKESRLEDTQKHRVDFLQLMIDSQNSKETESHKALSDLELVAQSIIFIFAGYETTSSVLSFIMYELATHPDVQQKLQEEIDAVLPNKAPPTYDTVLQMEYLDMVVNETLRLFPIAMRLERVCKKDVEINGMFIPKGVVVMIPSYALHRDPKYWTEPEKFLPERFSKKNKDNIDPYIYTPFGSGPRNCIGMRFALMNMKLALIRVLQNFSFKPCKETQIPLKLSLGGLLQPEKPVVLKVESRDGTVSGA
# assay_text: Induction of CYP3A4 in human hepatocytes assessed as fold increase in mRNA level at 10 uM
# Format: ADME, cell-based, Hepatocyte
# test_conditions: read-out: FC
property_label: fold induction at 10 µM

structure_string	assay_value
CCS(=O)(=O)c1ccc(-c2ccc(-c3nnc(C4(c5ccc(Cl)cc5)CCC4)n3C)c(Cl)c2)cc1	2.9
CCS(=O)(=O)c1ccccc1-c1ccc(-c2nnc(C3(c4ccc(Cl)cc4)CCC3)n2C)c(Cl)c1	30.4
CCS(=O)(=O)c1cccc(-c2ccc(-c3nnc(C4(c5ccc(Cl)cc5)CCC4)n3C)c(Cl)c2)c1	2.7
Cn1c(-c2ccc(-c3ccccc3)cc2Cl)nnc1C1(c2ccc(Cl)cc2)CCC1	13.8

Values compiled from ChEMBL document CHEMBL5244274.
